- Assay system: PI3Kα (Homo sapiens)
- Sequence (P42336 whole entry, species assumed): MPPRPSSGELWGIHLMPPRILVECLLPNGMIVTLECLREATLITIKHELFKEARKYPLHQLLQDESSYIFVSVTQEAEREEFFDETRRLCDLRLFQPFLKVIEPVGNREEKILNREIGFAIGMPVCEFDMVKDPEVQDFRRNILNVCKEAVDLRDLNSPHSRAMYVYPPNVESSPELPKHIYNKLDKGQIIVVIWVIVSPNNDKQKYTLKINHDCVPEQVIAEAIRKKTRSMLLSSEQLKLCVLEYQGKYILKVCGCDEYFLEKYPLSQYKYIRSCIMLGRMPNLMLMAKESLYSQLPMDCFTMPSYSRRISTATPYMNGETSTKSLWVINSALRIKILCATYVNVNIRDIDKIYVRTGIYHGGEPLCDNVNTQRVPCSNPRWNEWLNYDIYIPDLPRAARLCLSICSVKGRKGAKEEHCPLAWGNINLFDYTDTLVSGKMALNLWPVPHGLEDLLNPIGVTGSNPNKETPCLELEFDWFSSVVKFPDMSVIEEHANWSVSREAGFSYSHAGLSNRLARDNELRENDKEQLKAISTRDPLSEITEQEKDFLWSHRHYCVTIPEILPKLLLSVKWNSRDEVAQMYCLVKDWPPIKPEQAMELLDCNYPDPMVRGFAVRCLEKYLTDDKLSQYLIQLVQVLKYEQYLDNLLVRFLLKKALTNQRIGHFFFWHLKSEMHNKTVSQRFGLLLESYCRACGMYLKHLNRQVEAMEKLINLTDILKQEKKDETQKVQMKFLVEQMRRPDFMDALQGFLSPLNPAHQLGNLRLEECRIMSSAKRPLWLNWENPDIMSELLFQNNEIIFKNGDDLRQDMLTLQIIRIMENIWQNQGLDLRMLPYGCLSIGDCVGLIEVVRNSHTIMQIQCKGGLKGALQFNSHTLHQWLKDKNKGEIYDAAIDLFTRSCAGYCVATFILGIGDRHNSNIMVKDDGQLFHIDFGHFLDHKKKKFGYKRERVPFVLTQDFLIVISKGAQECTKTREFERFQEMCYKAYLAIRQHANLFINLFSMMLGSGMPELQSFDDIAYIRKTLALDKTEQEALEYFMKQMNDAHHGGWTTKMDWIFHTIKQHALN
- Sequence (P27986 whole entry partner, species assumed): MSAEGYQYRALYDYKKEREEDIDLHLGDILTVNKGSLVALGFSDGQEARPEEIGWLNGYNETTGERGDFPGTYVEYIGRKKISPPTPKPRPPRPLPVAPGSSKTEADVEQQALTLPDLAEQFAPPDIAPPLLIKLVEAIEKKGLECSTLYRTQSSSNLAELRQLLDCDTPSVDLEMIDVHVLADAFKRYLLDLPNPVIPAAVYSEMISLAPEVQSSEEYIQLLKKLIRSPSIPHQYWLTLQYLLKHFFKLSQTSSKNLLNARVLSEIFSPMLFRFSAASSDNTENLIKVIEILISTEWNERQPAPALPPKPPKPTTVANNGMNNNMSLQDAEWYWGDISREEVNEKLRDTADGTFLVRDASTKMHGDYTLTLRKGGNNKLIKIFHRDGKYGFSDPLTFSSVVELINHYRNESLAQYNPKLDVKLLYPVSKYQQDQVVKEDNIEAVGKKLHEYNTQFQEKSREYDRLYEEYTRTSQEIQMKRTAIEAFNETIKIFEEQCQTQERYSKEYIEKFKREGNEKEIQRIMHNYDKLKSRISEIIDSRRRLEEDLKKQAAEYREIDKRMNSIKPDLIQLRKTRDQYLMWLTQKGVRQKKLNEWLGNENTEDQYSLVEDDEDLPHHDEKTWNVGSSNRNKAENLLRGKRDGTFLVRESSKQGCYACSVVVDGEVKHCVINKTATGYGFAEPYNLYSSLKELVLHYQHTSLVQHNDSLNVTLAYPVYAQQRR
pIC50: −log10 of the molar value.
Readout name: pIC50

Worked cases, answers included:
IN: Tell me pIC50 reported for COC(=O)c1ccc(NC(=O)Nc2ccc(-c3nc(N4CCOCC4)c4ccn(CC(F)(F)F)c4n3)cc2)cc1 [Compound 50]
OUT: 5.06

IN: Respond only with pIC50 recorded for CC(C)n1ccc2c(N3CCOCC3)nc(-c3ccc(NC(=O)Nc4ccncc4)cc3)nc21 [Compound 79]
OUT: 7.55

IN: State its pIC50 for this compound: CN(C)CCn1ccc2c(N3CCOCC3)nc(-c3ccc(NC(=O)NCCc4c[nH]c5ccccc45)cc3)nc21 [Compound 18]
OUT: 5.85

A = Nc1nc2cc(-c3nc(N4CCOCC4)c4ccn(CC(F)(F)F)c4n3)ccc2[nH]1 [Compound 45]
B = O=C(Nc1ccncc1)Nc1ccc(-c2nc(N3CCOCC3)c3ccn(CCNCCc4cnc[nH]4)c3n2)cc1 [Compound 30]
IN: Between the entries labelled A and B , which has a larger pIC50 value on record? Bench note: the answer is the label of the chosen record.
OUT: B
(B: 7.85, A: 7.35)

a = O=C(Nc1ccc(-c2nc(N3CCOCC3)c3cc[nH]c3n2)cc1)Nc1cccnc1 [Compound 5]
b = CCn1ccc2c(N3CCOCC3)nc(-c3ccc(NC(=O)Nc4ccc(C(=O)N5CCC(N(C)C)CC5)cc4)cc3)nc21 [Compound 65]
c = CN(C)CCNC(=O)Nc1ccc(-c2nc(N3CCOCC3)c3ccn(CC(F)(F)F)c3n2)cc1 [Compound 41]
d = O=C(Nc1nc2cc(-c3nc(N4CCOCC4)c4ccn(CC(F)(F)F)c4n3)ccc2[nH]1)c1ccncc1 [Compound 47]
IN: Put the items in sequence by pIC50, from largest down. In your reply, arrange the labels in the requested order.
OUT: b, a, c, d

This collection of values is drawn from patent US20100003250A1.
